- measured.target: GABA-A receptor; alpha-1/beta-2/gamma-2 (Homo sapiens) (UniProt P14867+P47870+P18507)
- protocol.text: Agonist activity at human GABAA alpha1beta2gamma2S receptor expressed in HEK293 cells by patch clamp electrophysiology assay relative to GABA
- Type: cell-based
measured.property: Rmax

Would you please look over these solved cases?
substance.smiles: NCc1cnn(O)c1Cl
Rmax: > 72%

substance.smiles: NCc1cnn(O)c1
Rmax: 69%

substance.smiles: NCc1cnn(O)c1Br
Rmax: > 23%

Kindly consider the entry below.
Ask: Name the recorded Rmax of the item `Cc1c(CN)cnn1O` in your answer.
Reply: > 64%

----------
- measured.target: GABA-A receptor; alpha-1/beta-2/gamma-2 (Homo sapiens, UniProt P14867+P18507+P47870)
- Sequence (P14867 whole entry): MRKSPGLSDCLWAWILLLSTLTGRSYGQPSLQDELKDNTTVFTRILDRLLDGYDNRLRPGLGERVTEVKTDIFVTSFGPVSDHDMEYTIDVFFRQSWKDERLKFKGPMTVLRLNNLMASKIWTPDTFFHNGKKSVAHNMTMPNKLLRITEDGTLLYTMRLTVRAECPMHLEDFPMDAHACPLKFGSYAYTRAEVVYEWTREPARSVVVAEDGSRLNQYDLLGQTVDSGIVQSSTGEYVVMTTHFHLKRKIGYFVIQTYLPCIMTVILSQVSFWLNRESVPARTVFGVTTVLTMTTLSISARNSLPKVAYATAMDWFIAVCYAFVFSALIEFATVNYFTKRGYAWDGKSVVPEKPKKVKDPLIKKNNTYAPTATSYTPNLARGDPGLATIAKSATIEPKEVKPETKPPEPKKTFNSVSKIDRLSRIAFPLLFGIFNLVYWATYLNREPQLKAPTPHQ
- Sequence (P47870 whole entry): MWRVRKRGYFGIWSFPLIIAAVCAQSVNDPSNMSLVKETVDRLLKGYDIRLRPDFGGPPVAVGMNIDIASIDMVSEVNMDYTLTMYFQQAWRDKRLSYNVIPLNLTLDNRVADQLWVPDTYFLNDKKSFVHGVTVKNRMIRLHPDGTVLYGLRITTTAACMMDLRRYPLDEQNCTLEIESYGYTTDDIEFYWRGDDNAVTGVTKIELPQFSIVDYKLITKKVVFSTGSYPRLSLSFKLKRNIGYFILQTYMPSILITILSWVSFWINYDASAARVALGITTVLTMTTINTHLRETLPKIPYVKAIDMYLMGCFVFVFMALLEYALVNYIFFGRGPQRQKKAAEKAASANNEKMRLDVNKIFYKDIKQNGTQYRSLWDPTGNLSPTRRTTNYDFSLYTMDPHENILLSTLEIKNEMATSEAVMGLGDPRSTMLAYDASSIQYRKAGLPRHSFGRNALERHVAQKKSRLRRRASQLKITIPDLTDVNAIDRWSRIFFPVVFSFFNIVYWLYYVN
- Sequence (P18507 whole entry): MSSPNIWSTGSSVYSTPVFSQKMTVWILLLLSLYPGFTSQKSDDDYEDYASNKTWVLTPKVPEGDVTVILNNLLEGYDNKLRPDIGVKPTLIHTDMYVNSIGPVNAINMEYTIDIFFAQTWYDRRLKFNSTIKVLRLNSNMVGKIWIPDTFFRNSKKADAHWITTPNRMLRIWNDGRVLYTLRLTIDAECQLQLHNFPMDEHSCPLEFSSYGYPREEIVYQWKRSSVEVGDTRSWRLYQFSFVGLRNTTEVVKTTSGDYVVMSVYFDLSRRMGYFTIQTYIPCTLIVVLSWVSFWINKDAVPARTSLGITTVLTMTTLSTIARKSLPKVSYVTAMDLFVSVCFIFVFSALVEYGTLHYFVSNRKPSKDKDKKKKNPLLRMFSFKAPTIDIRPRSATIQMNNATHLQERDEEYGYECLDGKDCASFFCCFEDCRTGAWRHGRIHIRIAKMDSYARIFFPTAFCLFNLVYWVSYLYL
- protocol.text: Agonist activity at human GABAA alpha1beta2gamma2S receptor expressed in HEK293 cells by patch clamp electrophysiology assay
- Type: cell-based
// values below are reported EC50

substance.smiles: NCc1cnn(O)c1Br
EC50: > 100 µM
//
substance.smiles: NCc1cnn(O)c1Cl
EC50: > 30 µM

Ask: Name the recorded EC50 of the item `Cc1c(CN)cnn1O` in your answer.
Reply: > 10 µM

Ask: Name the recorded EC50 of the item `NCc1cnn(O)c1` in your answer.
Reply: 19 µM
